# Tested on: basophils
# measurement protocol: Basophil activation in human whole blood (Flow2 CAST kit, CD63 flow cytometry)
# Format: cell-based
# condition details: Homo sapiens, human whole blood, basophils activated with anti-FcεRI mAb or fMLP, percent CD63 positive cells, geometric mean
pEC50: −log10 of the molar value.
# pEC50 annotations
measured endpoint: pEC50

structure smiles | measured endpoint | reported measurement
N#Cc1c(N)nc(N)nc1N[C@H](c1nc2cccc(Cl)c2c(=O)n1-c1cncc(F)c1)C1CC1 | pEC50 | 8.40
C[C@H](Nc1nc(N)nc(N)c1C#N)c1nc2ccc(F)cc2c(=O)n1-c1cccnc1 | pEC50 | 8.70
C[C@H](Nc1nc(N)nc(N)c1C#N)c1nc2c(F)ccc(Cl)c2c(=O)n1-c1cccnc1 | pEC50 | 9.52
C[C@H](Nc1nc(N)nc(N)c1C#N)c1nc2c(F)ccc(Cl)c2c(=O)n1-c1cncc(F)c1 | pEC50 | 9.30

Data origin, for the record: patent US9221795B2
